system: NCI-H226 lung; assay: NCI tumour cell line growth inhibition, 48 h; in the data active = GI50 below about 0.43 µM; inactive = the rest
Answer with one of the outcomes active, inactive

Prompt: What did the test return for CCNCCCn1c2c(c3ccc(F)cc3c1=O)C(=O)c1cc(OC)cnc1-2 ?
Completion: active

Prompt: What about this molecule? COc1cccc(/C=C/c2ccc(S(N)(=O)=O)cc2)c1
Completion: inactive

Prompt: What about this molecule? COc1cc(/C=C/C(=O)Nc2ccc3c(c2)/C(=C\c2cccn2C)C(=O)N3)cc(OC)c1OC
Completion: inactive

Prompt: What about this molecule? COc1cc(/C=C/C(=O)c2ccc(Nc3nc(Nc4ccc(F)cc4)nc(Nc4ccc(Cl)cc4)n3)cc2)cc(OC)c1OC
Completion: inactive

Prompt: What about this molecule? CNC(=O)C(CCc1ccccc1)NC(=O)C(CC(=O)NO)CC(C)C (stereo unspecified)
Completion: inactive

Prompt: What about this molecule? CCOC(=O)Cc1csc(NC(=O)COC(=O)c2ccc(N)cc2)n1
Completion: inactive
